SYSTEM UNDER TEST: T1, Cynomolgus monkey DLL3 on HEK293 cells (HEK293-cyno DLL3) (Cynomolgus monkey, UniProt Q9NYJ7 27-618 (human entry))
T1 chain: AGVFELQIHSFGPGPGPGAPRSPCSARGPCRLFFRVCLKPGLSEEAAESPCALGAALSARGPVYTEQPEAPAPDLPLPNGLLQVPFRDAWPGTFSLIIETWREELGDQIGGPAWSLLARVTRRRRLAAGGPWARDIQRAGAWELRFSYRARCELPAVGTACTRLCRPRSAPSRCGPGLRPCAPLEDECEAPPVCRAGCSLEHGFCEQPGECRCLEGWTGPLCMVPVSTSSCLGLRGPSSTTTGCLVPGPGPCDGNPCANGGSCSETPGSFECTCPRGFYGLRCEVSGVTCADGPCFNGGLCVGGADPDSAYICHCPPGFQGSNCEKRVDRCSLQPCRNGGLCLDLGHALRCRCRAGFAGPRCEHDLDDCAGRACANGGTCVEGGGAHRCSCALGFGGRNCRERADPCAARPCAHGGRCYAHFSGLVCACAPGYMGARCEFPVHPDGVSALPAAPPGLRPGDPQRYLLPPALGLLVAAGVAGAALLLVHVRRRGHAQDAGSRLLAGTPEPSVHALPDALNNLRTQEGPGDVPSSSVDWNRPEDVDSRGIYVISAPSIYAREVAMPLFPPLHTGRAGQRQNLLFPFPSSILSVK
ASSAY TEXT: flow cytometry, HEK293-cyno DLL3 cells
pEC50: −log10 of the molar value.
MEASURED QUANTITY: pEC50

BINDER	MEAS VALUE
DLL3-276 camelid-derived anti-DLL3 chimeric antibody (antibody, human IgG1, V domains shown) VH: QVQLVESGGGSVQAGGSLNLSCATSGSTASTTYMGWFRQAPGKGREGVAIIYTARDNPWYANSVKGRFIISQDNAKKTLYLQMNTLKPEDTATYYCAATLANPTRTAWGQGTLVTVSS	8.68
hDLL3-3-2 camelid-derived humanized anti-DLL3 antibody (antibody, V domains shown) VH: EVQLVESGGGLVQPGGSLRLSCKSPTYTISSGYMGWFRQAPGKEREGVAAIYIGGSTTLYADSVKGRFTISRDNSKNTLYLQMNSLRAEDTAVYYCAAQLRPNSAYHPLDGRKYNYWGQGTLVTVSS	9.82
DLL3-3 camelid-derived anti-DLL3 chimeric antibody (antibody, human IgG1, V domains shown) VH: DVQLVESGGGSVQAGGSLKLSCKSPTYTISSGYMGWFRQAPGKEREGVAAIYIGGSTTLYADSVKGRFTISADNAEKTVYLQMNTLKPEDSAMYYCAAQLRPNSAYHPLDGRKYNYWGQGTQVTVSS	10.10
DLL3-26 camelid-derived anti-DLL3 chimeric antibody (antibody, human IgG1, V domains shown) VH: QVQLVESGGGSVQAGGSLRLSCAASGDIYSSSYVGWFRQAPGKEREGVAIIYTSGDSTYYANSVKGRFTISQDKAKKTLYLQMNSLKPEDTAMYYCAARFAIDNSNYWGQGTQVTVSS	9.27
